System: A549 cells
test-protocol: Non-photographic proliferation analysis (Promega Cell titer Aqueous), A549
Assay type: cell-based
Design: key: “+” indicates that the compound exibits inhibitory activity; “−” indicates that low or no inhibitory activity was observed
particulars: 6 concentrations tested

compound	Cell Titer-Aqueous, A549 6 pt
O=[N+]([O-])c1ccc(Oc2c(Cl)cc(S(=O)(=O)Nc3cccnc3Cl)cc2Cl)c(Cl)c1 [Example 207]	+
CS/C(=N\S(=O)(=O)c1cc(Cl)c(Oc2ccc([N+](=O)[O-])cc2Cl)c(Cl)c1)Nc1ccc(Cl)cc1 [Example 149]	+
O=[N+]([O-])c1ccc(Oc2c(Cl)cc(S(=O)(=O)Nc3ccsc3)cc2Cl)c(Cl)c1 [Example 165]	+
Cc1cccc(C)c1N(S(=O)(=O)c1cc(Cl)c(Oc2ccc([N+](=O)[O-])cc2Cl)c(Cl)c1)S(=O)(=O)c1cc(Cl)c(Oc2ccc([N+](=O)[O-])cc2Cl)c(Cl)c1 [Example 145]	−
COc1ccc(NS(=O)(=O)c2cc(Cl)c(Oc3ccc([N+](=O)[O-])cc3Cl)c(Cl)c2)c(OC)n1 [Example 206]	+
O=[N+]([O-])c1ccc(Oc2c(Cl)cc(S(=O)(=O)NC(=S)Nc3ccc(Cl)c(Cl)c3)cc2Cl)c(Cl)c1 [Compound 148]	−
O=[N+]([O-])c1ccc(Oc2c(Cl)cc(S(=O)(=O)Nc3cccc(Br)c3)cc2Cl)c(Cl)c1 [Example 159]	+
O=[N+]([O-])c1ccc(Oc2c(Cl)cc(S(=O)(=O)Nc3cc([N+](=O)[O-])ccc3F)cc2Cl)c(Cl)c1 [Compound 220]	+
O=[N+]([O-])c1ccc(Oc2c(Cl)cc(S(=O)(=O)Nc3ncccn3)cc2Cl)c(Cl)c1 [Example 222]	−
Cc1cccc(C)c1NS(=O)(=O)c1cc(Cl)c(Oc2ccc([N+](=O)[O-])cc2Cl)c(Cl)c1 [Example 146]	+
COc1ccc(NS(=O)(=O)c2cc(Cl)c(Oc3ccc([N+](=O)[O-])cc3Cl)c(Cl)c2)cc1 [Compound 208]	+
CC1CCCC(C)N1S(=O)(=O)c1cc(Cl)c(Oc2ccc([N+](=O)[O-])cc2Cl)c(Cl)c1 (stereo not shown) [Example 140]	−
O=[N+]([O-])c1ccc(Oc2c(Cl)cc(S(=O)(=O)NC3Cc4ccccc4C3)cc2Cl)c(Cl)c1 [Example 224]	+
O=[N+]([O-])c1ccc(Oc2c(Cl)cc(S(=O)(=O)Nc3cc(Br)cc(Br)n3)cc2Cl)c(Cl)c1 [Compound 218]	+
N=C(NS(=O)(=O)c1cc(Cl)c(Oc2ccc([N+](=O)[O-])cc2)c(Cl)c1)c1ccncc1 [Example 62]	+
O=[N+]([O-])c1ccc(Oc2c(Cl)cc(S(=O)(=O)Nc3cccc4cccnc34)cc2Cl)c(Cl)c1 [Example 219]	+
O=[N+]([O-])c1ccc(Oc2c(Cl)cc(S(=O)(=O)NCCc3ccc(O)cc3)cc2Cl)c(Cl)c1 [Example 223]	−
O=[N+]([O-])c1ccc(Oc2c(Cl)cc(S(=O)(=O)Nc3ccc4[nH]ccc4c3)cc2Cl)c(Cl)c1 [Example 174]	+
O=[N+]([O-])c1ccc(Oc2c(Cl)cc(S(=O)(=O)/N=C(\NO)Nc3ccc(Cl)cc3)cc2Cl)c(Cl)c1 [Example 58]	+
COc1cccc(NS(=O)(=O)c2cc(Cl)c(Oc3ccc([N+](=O)[O-])cc3Cl)c(Cl)c2)c1F [Example 166]	+
N#Cc1ccc(NS(=O)(=O)c2cc(Cl)c(Oc3ccc([N+](=O)[O-])cc3Cl)c(Cl)c2)cc1 [Example 200]	+
O=[N+]([O-])c1ccc(Oc2c(Cl)cc(S(=O)(=O)Nc3cc(Cl)ccc3Cl)cc2Cl)c(Cl)c1 [Compound 203]	+
O=[N+]([O-])c1ccc(Oc2c(Cl)cc(S(=O)(=O)Nc3cccc(-c4ccccc4)c3)cc2Cl)c(Cl)c1 [Example 179]	−
CS(=O)(=O)c1cccc(NS(=O)(=O)c2cc(Cl)c(Oc3ccc([N+](=O)[O-])cc3Cl)c(Cl)c2)c1 [Compound 173]	−
Cc1cccc(C(C)C)c1NS(=O)(=O)c1cc(Cl)c(Oc2ccc([N+](=O)[O-])cc2Cl)c(Cl)c1 [Example 160]	+
O=[N+]([O-])c1ccc(Oc2c(Cl)cc(S(=O)(=O)Nc3cccc4c3oc3ccccc34)cc2Cl)c(Cl)c1 [Example 175]	−
COc1ccc(NS(=O)(=O)c2cc(Cl)c(Oc3ccc([N+](=O)[O-])cc3Cl)c(Cl)c2)cc1OC [Example 170]	+
O=[N+]([O-])c1ccc(Oc2c(Cl)cc(S(=O)(=O)Nc3cccnc3)cc2Cl)c(Cl)c1 [Example 205]	−
